# TARGET OR SYSTEM: EGFR L858R/T790M (LR/TM) (Homo sapiens, UniProt P00533, L858R/T790M)
# Sequence (P00533 25-1210 T790M/L858R): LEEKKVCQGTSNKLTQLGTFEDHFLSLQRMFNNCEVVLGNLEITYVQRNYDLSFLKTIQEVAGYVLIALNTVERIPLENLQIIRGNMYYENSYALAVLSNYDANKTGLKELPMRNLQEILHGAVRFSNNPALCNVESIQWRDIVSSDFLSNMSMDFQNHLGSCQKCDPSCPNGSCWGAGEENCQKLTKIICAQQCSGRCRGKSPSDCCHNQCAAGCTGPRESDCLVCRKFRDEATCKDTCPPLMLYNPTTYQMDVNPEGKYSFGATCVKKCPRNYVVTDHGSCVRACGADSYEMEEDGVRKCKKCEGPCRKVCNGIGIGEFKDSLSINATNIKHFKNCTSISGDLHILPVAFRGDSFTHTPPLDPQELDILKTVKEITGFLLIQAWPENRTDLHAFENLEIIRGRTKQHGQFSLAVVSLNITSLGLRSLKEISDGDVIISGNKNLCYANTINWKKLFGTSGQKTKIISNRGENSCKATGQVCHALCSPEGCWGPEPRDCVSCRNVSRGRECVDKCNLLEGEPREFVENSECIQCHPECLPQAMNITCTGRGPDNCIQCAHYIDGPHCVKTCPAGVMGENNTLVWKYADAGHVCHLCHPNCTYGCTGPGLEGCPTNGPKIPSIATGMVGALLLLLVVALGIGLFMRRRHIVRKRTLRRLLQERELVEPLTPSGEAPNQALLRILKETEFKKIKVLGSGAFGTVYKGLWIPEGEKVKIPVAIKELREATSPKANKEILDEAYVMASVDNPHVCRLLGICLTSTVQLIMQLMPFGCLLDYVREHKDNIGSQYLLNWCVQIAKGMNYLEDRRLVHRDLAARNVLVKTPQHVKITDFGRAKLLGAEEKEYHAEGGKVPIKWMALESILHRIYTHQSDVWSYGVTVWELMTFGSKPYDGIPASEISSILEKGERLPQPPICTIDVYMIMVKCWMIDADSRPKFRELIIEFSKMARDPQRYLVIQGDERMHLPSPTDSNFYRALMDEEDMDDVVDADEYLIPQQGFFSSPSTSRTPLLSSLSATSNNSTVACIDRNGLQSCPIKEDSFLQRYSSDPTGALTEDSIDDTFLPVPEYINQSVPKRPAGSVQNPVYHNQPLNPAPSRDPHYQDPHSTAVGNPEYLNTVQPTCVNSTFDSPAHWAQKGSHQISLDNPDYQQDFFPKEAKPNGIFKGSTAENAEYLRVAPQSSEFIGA
# PROTOCOL DETAILS: ELISA kinase activity detection, EGFR double mutant
# Type: biochemical
# SETTINGS: ELISA-based EGFR-TK assay, ATP 5 μM, mean ± SD

{"columns": ["COMPOUND", "COMPARISON SIGN", "IC50 / nM"],
 "data": [
  ["COc1cc2ncnc(Nc3ccc(NC(=O)c4ccccc4)cc3F)c2cc1OC", ">", 10000],
  ["COc1cc2nc(N)nc(Nc3ccc(NC(=O)C(c4ccccc4)N4Cc5ccccc5C4=O)cc3F)c2cc1OC (stereo not shown)", ">", 10000],
  ["COc1cc2c(Nc3ccc(NC(=O)C(c4cc(F)ccc4F)N4Cc5ccccc5C4=O)cc3F)ncnc2cc1OCC1CCN(C)CC1 (stereo not shown)", "=", 35.3],
  ["COc1cc2c(Nc3ccc(NC(=O)[C@H](c4ccccc4)N4Cc5ccccc5C4=O)cc3F)ncnc2cc1OCC1CCN(C)CC1", "=", 8.6]
]}

* * *

Recorded IC50 for the following molecules
# TARGET OR SYSTEM: EGFR L858R/T790M/C797S (LR/TM/CS) (Homo sapiens, UniProt P00533, C797S/L858R/T790M)
# Construct: purchased BPS Bioscience
# Sequence (P00533 25-1210 T790M/C797S/L858R): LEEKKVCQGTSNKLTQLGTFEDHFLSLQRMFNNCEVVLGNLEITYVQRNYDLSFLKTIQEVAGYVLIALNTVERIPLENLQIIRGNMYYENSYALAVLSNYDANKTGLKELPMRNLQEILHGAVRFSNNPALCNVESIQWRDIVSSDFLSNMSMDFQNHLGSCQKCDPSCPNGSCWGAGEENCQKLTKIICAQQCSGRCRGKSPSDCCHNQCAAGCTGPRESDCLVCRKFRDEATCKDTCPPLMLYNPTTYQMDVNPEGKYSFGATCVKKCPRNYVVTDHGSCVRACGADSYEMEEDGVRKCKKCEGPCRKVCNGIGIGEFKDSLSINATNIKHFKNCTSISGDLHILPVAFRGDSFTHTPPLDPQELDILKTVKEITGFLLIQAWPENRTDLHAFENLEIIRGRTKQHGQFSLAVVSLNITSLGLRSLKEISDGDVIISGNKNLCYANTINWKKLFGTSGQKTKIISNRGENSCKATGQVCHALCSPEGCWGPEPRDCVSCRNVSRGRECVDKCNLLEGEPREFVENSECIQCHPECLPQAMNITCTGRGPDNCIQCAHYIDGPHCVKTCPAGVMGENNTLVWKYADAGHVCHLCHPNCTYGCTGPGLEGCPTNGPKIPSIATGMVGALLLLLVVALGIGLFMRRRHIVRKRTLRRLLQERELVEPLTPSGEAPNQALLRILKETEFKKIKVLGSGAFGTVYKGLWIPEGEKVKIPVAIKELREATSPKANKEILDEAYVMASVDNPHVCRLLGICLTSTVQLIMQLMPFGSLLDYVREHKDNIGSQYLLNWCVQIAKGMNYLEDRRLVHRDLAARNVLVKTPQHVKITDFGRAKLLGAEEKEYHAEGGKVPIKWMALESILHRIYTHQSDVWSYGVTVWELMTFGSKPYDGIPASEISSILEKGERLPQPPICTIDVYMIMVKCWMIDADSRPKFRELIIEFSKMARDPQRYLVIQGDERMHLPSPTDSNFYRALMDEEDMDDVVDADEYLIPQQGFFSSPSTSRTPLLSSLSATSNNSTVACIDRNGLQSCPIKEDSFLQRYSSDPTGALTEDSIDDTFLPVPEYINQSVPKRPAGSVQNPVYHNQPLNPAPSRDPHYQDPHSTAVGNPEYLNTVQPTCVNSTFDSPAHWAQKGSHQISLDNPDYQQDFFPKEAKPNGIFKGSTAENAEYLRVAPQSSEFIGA
# PROTOCOL DETAILS: ELISA kinase activity detection, EGFR triple mutant
# Format: biochemical
# SETTINGS: ELISA-based EGFR-TK assay, ATP 5 μM, mean ± SD

{"columns": ["MOLECULE", "TARGET OR SYSTEM", "MEASUREMENT UNIT", "COMPARISON SIGN", "IC50"],
 "data": [
  ["COc1cc2c(Nc3cc(NC(=O)c4ccccc4)ccc3F)ncnc2cc1OCC1CCN(C)CC1 [Example 2]", "EGFR L858R/T790M/C797S (LR/TM/CS) (Homo sapiens, UniProt P00533, C797S/L858R/T790M)", "nM", ">", 10000],
  ["COc1cc2ncnc(Nc3ccc(NC(=O)C(c4ccccc4)N4Cc5ccccc5C4=O)cc3F)c2cc1OC (centres unmarked) [Example 17]", "EGFR L858R/T790M/C797S (LR/TM/CS) (Homo sapiens, UniProt P00533, C797S/L858R/T790M)", "nM", "=", 37.1],
  ["COc1cc2c(Nc3ccc(NC(=O)C(c4cccc(F)c4)N4Cc5ccccc5C4=O)cc3F)ncnc2cc1OCC1CCN(C)CC1 (centres unmarked) [Example 22]", "EGFR L858R/T790M/C797S (LR/TM/CS) (Homo sapiens, UniProt P00533, C797S/L858R/T790M)", "nM", "=", 13.4],
  ["COc1cc2c(Nc3ccc(NC(=O)[C@@H](c4ccccc4)N4Cc5ccccc5C4=O)cc3F)ncnc2cc1OCC1CCN(C)CC1 [Example 20]", "EGFR L858R/T790M/C797S (LR/TM/CS) (Homo sapiens, UniProt P00533, C797S/L858R/T790M)", "nM", "=", 19.2],
  ["COc1cc2ncnc(Nc3ccc(NC(=O)c4ccccc4)cc3F)c2cc1OC [Example 15]", "EGFR L858R/T790M/C797S (LR/TM/CS) (Homo sapiens, UniProt P00533, C797S/L858R/T790M)", "nM", ">", 10000]
]}
